Listed here are compounds together with their documented melting point.

## Task Respond only with melting point recorded for "CCS(=O)(=O)Nc1cccc(SCc2ccccc2)n1"
## Result 87 to 92 °C

## Task Respond only with melting point recorded for "CCOC(=O)c1cn(Cc2ccccc2)nc1NC(=O)N(C)C"
## Result 125 to 126 °C

---

Listed here are compounds together with their documented melting point.

Completed entries (count: 8):
- compound: "COC(=O)CC/C(C)=C/Cc1c(N=C=O)c2c(c(C)c1OC)COC2=O"
  melting point: "95 to 101 °C"
- compound: "CC1(C)OC(c2cccs2)CN1C(=O)C(Cl)Cl (stereo not given)"
  melting point: "104 to 105 °C"
- compound: "CC[C@@H](O)[C@@H](CCCC(C)=O)OCc1ccccc1"
  melting point: "30 to 31 °C"
- compound: "Cc1nnc2cnc(-c3ccccc3)cn12"
  melting point: "192 to 195 °C"
- compound: "COC(=O)CCc1ccccc1-c1[nH]c2cccc3c2c1CCNC3=O"
  melting point: "201 to 202 °C"
- compound: "COc1c(Cl)ccc(-c2nc(N)c(Cl)c(C(=O)O)n2)c1F"
  melting point: "172 to 173 °C"
- compound: "O=C(CC(=O)c1ccccc1)Nc1ccccc1NC(=O)CC(=O)c1ccccc1"
  melting point: "202 to 204 °C"
- compound: "CCOC(=O)COc1cccc(-c2nnc(Nc3cccc(Br)c3)s2)c1"
  melting point: "175 °C"

## Task Respond only with melting point recorded for "CCOC(=O)c1cn(C)nc1Nc1ccc(F)cc1[N+](=O)[O-]"
## Result 162 °C

## Task Respond only with melting point recorded for "c1ccc(C(CCc2c[nH]cn2)c2ccccc2)cc1"
## Result 115 to 117 °C

## Task Respond only with melting point recorded for "Clc1ccc2c(c1)N=C1C=CC=CN1CO2"
## Result 175 to 177 °C

## Task Respond only with melting point recorded for O=C(O)c1cn(C2CC2)c2nc(N3CCCC(n4ccnn4)C3)c(F)cc2c1=O (stereo not given)
## Result 251 to 254 °C

## Task Respond only with melting point recorded for "Cc1ccn(-c2ccc(C(=O)N3Cc4ccc(CN(C)C)n4Cc4ccccc43)c(Cl)c2)n1"
## Result 100 to 102 °C

## Task Respond only with melting point recorded for "O=C(OC1CCCCC1)C1=C(O)c2ccccc2S(=O)(=O)N1"
## Result 158 °C

## Task Respond only with melting point recorded for "CCC(=O)OCOC(=O)C1=C(C)N(COC)C(C)=C(C(=O)OCOC(=O)CC)C1c1cccc([N+](=O)[O-])c1"
## Result 86 to 87 °C
